assay: xn = mol fraction of the nth substance listed, in the solute-free solvent; details: 298.15 K; x2 = 0.5
Recorded Endpoint: solubility (g/100 g solution)

Completed entries (count: 3):
Compound: Cc1ncc(CO)c(CO)c1O.Cl + O + CCCO
Reported: 5
//
Compound: Cc1c(Br)c(=O)n(C2CCCC2)c2nc(Cl)ncc12 + CC1=CC(=O)CC(C)(C)C1 + CC(C)O
Reported: 1.16
//
Compound: Cc1ncc(CO)c(CO)c1O.Cl + O + CC(C)O
Reported: 3.42

1: CCOc1ccccc1C(N)=O + CC#N + CC(C)O
2: Cc1c(Br)c(=O)n(C2CCCC2)c2nc(Cl)ncc12 + CCOC(C)=O + CCO
3: Cc1c(Br)c(=O)n(C2CCCC2)c2nc(Cl)ncc12 + C1CCOC1 + CCO
4: CCOc1ccccc1C(N)=O + CO + CC#N
-- ask Arrange these compounds by their solubility (g/100 g solution), starting with the largest number. Labels, ranked as asked.
-- reply 4, 1, 3, 2
(4: 10.1, 1: 6.8, 3: 4.52, 2: 0.742)

----------
experiment: xn = mol fraction of the nth substance listed, in the solute-free solvent; settings: 323.15 K; x2 = 0.1
Recorded Endpoint: solubility (g/100 g solution)

Completed entries (count: 5):
Compound: Cc1c(Br)c(=O)n(C2CCCC2)c2nc(Cl)ncc12 + CC1=CC(=O)CC(C)(C)C1 + CC(C)O
solubility (g/100 g solution): 1.59
--
Compound: CCOc1ccccc1C(N)=O + CC#N + CC(C)O
solubility (g/100 g solution): 13
--
Compound: O=C(NC(C(=O)O)c1ccccc1)OCc1ccccc1 (centres undefined) + CCO + O
solubility (g/100 g solution): 0.396
--
Compound: CCOc1ccccc1C(N)=O + CO + CC#N
solubility (g/100 g solution): 17.3
--
Compound: Cl.N=C(N)NC(=N)N1CCOCC1 + O + CC(C)O
solubility (g/100 g solution): 1.11

I: Cc1c(Br)c(=O)n(C2CCCC2)c2nc(Cl)ncc12 + CCOC(C)=O + CCO
II: CCOc1ccccc1C(N)=O + CC#N + CCO
III: Cc1c(Br)c(=O)n(C2CCCC2)c2nc(Cl)ncc12 + C1CCOC1 + CCO
-- ask Please put the entries in order of rising solubility (g/100 g solution). Labels, ranked as asked.
-- reply I, III, II
(I: 0.79, III: 2.94, II: 17.4)

----------
assay: xn = mol fraction of the nth substance listed, in the solute-free solvent; details: 283.15 K; x2 = 0.9
Recorded Endpoint: solubility (g/100 g solution)

Molecule: Cc1c(Br)c(=O)n(C2CCCC2)c2nc(Cl)ncc12 + CC1=CC(=O)CC(C)(C)C1 + CC(C)O
solubility (g/100 g solution): 0.613

1: Cc1c(Br)c(=O)n(C2CCCC2)c2nc(Cl)ncc12 + CCOC(C)=O + CCO
2: Cc1ncc(CO)c(CO)c1O.Cl + O + CCCO
-- ask Which item exceeds the other in solubility (g/100 g solution), 1 or 2 ? // output: label of the selected item
-- reply 2

I: Cc1c(Br)c(=O)n(C2CCCC2)c2nc(Cl)ncc12 + C1CCOC1 + CCO
II: Cc1ncc(CO)c(CO)c1O.Cl + O + CC(C)O
III: Cc1ncc(CO)c(CO)c1O.Cl + O + CC#N
IV: Cl.N=C(N)NC(=N)N1CCOCC1 + O + CC(C)O
-- ask Arrange these molecules by their solubility (g/100 g solution), starting with the largest number. Labels, ranked as asked.
-- reply IV, III, II, I
(IV: 35, III: 13.3, II: 8.78, I: 4.01)
